Test: Caco-2 permeability
Assay type: in vitro ADME
Conditions: human, pH 7.4; Caco-2, 10 μM, 90 min, apical-to-basolateral
Assign Papp A→B at 90 min, 10 μM to each entry below.
Please respond with the number in ×10⁻⁶ cm/s and leave the unit unwritten.

*Q* # get_value(readout='Papp A→B at 90 min, 10 μM', item= O=C(N[C@@H](Cc1ccccc1)C(=O)N[C@H](B(O)O)C1CCCC1)c1cnccn1 )
*A* 2

*Q* # get_value(readout='Papp A→B at 90 min, 10 μM', item= CC(C)C[C@H](NC(=O)[C@H](Cc1ccccc1)NC(=O)c1cnccn1)B(O)O [bortezomib, reference compound] )
*A* 2.8

* * *

Test: Human plasma protein binding, equilibrium dialysis
Assay type: in vitro ADME
Conditions: human, pH 7.4; plasma protein binding assay
property_label: recovery at 5 h, 1 µM (%)
Please respond with the number in % and leave the unit unwritten.

*Q* # get_value(readout='recovery at 5 h, 1 µM', item= CC(C)C[C@H](NC(=O)[C@H](Cc1ccccc1)NC(=O)c1cnccn1)B(O)O [bortezomib, reference compound] )
*A* 100

*Q* # get_value(readout='recovery at 5 h, 1 µM', item= O=C(N[C@@H](Cc1ccccc1)C(=O)N[C@H](B(O)O)C1CCCC1)c1cnccn1 )
*A* 93

* * *

Target: β2c subunit of human cCP (Homo sapiens, UniProt P49720+Q99436)
Construct: purchased Boston Biochem, Inc
Test: IC50 determination with fluorogenic substrate Ac-RLR-AMC (PA28β added)
Type: biochemical
Settings: human cCP; mean of at least three experiments; NA: not active at 50 μM
property_label: IC50 (µM)
Please respond with the number in µM and leave the unit unwritten.

*Q* # get_value(readout='IC50', item= O=C(N[C@@H](Cc1ccccc1)C(=O)N[C@H](B(O)O)C1CCCC1)c1cnccn1 [5l] )
*A* 37.4

*Q* # get_value(readout='IC50', item= O=C(N[C@@H](Cc1ccccc1)C(=O)N[C@H](B(O)O)c1ccc2c(c1)OCO2)c1cnccn1 [5g] )
*A* 45

*Q* # get_value(readout='IC50', item= O=C(N[C@@H](Cc1ccccc1)C(=O)N[C@@H](Cc1ccccc1)B(O)O)c1cnccn1 [5i] )
*A* 4.9

*Q* # get_value(readout='IC50', item= COc1ccc([C@H](NC(=O)[C@H](Cc2ccccc2)NC(=O)c2cnccn2)B(O)O)cc1 [5e] )
*A* 79

*Q* # get_value(readout='IC50', item= O=C(N[C@@H](Cc1ccccc1)C(=O)N[C@H](B(O)O)c1ccc(Cl)cc1)c1cnccn1 [5d] )
*A* 1.85

*Q* # get_value(readout='IC50', item= CC[C@H](NC(=O)[C@H](Cc1ccccc1)NC(=O)c1cnccn1)B(O)O [5j] )
*A* 3.4

*Q* # get_value(readout='IC50', item= O=C(N[C@@H](Cc1ccccc1)C(=O)N[C@H](B(O)O)C1CC1)c1cnccn1 [5k] )
*A* 0.44

* * *

Assign Papp B→A at 90 min, 10 μM to each entry below.
Experiment: Caco-2 permeability
Assay type: in vitro ADME
Settings: human, pH 7.4; Caco-2, 10 μM, 90 min, basolateral-to-apical
Experimental: Caco-2 cells were cultured in 75 cm2 flasks to 80-90% confluence in a humidified atmosphere at 37 °C and 5% CO2. Cells were detached with Trypsin/EDTA solution and resuspended in the complete medium containing DMEM high glucose (4500 mg/L) with L-glutamine (4 mM) supplemented with 10% […] heat-inactivated Fetal Bovine Serum, 1% non-essential amino acids, and 730 nM puromycin and seeded at a density 5 × 10^5 cells in 75 cm2 flask. […]
Please respond with the number in ×10⁻⁶ cm/s and leave the unit unwritten.

*Q* # get_value(readout='Papp B→A at 90 min, 10 μM', item= CC(C)C[C@H](NC(=O)[C@H](Cc1ccccc1)NC(=O)c1cnccn1)B(O)O [bortezomib, reference compound] )
*A* 20.7

*Q* # get_value(readout='Papp B→A at 90 min, 10 μM', item= O=C(N[C@@H](Cc1ccccc1)C(=O)N[C@H](B(O)O)C1CCCC1)c1cnccn1 )
*A* 17.1

* * *

Molecular target: β5c subunit of human cCP (Homo sapiens, UniProt P20618+P28074)
Construct: purchased Boston Biochem, Inc
Assay: IC50 determination with fluorogenic substrate Ac-WLA-AMC
Format: biochemical
Conditions: human cCP; mean of at least three experiments; NA: not active at 50 μM
property_label: pIC50
Just the number, please; pIC50 means minus log10 of the concentration in mol/L.

*Q* # get_value(readout='pIC50', item= O=C(N[C@@H](Cc1ccccc1)C(=O)N[C@H](B(O)O)c1ccc(F)cc1)c1cnccn1 [5c] )
*A* 6.65

*Q* # get_value(readout='pIC50', item= Cc1ccc([C@H](NC(=O)[C@H](Cc2ccccc2)NC(=O)c2cnccn2)B(O)O)cc1 [5b] )
*A* 6.15

*Q* # get_value(readout='pIC50', item= COc1ccc([C@H](NC(=O)[C@H](Cc2ccccc2)NC(=O)c2cnccn2)B(O)O)cc1 [5e] )
*A* 6.40

*Q* # get_value(readout='pIC50', item= O=C(N[C@@H](Cc1ccccc1)C(=O)N[C@H](B(O)O)c1ccccc1)c1cnccn1 [5a] )
*A* 4.89

* * *

Assign k el at 2 μM to each entry below.
Assay: Metabolic stability in human liver microsomes
Format: in vitro ADME
Details: pH 7.4; human liver microsomes, 2 μM, 40 min
Please respond with the number in s⁻¹ and leave the unit unwritten.

*Q* # get_value(readout='k el at 2 μM', item= CC(C)C[C@H](NC(=O)[C@H](Cc1ccccc1)NC(=O)c1cnccn1)B(O)O [bortezomib, reference compound] )
*A* 0.000333

*Q* # get_value(readout='k el at 2 μM', item= O=C(N[C@@H](Cc1ccccc1)C(=O)N[C@H](B(O)O)C1CCCC1)c1cnccn1 )
*A* 0.0003

* * *

Assign pIC50 to each entry below.
Target: β2i subunit of human iCP (Homo sapiens, UniProt P40306+P49720)
Assay: IC50 determination with fluorogenic substrate Ac-RLR-AMC (PA28β added)
Just the number, please; pIC50 means minus log10 of the concentration in mol/L.

*Q* Query the reported pIC50 for β2i subunit of human iCP (Homo sapiens, UniProt P40306+P49720); item: O=C(N[C@@H](Cc1ccccc1)C(=O)N[C@H](B(O)O)c1ccc2c(c1)OCO2)c1cnccn1
*A* 5.07

*Q* Query the reported pIC50 for β2i subunit of human iCP (Homo sapiens, UniProt P40306+P49720); item: CC[C@H](NC(=O)[C@H](Cc1ccccc1)NC(=O)c1cnccn1)B(O)O
*A* 5.89

*Q* Query the reported pIC50 for β2i subunit of human iCP (Homo sapiens, UniProt P40306+P49720); item: O=C(N[C@@H](Cc1ccccc1)C(=O)N[C@H](B(O)O)C1CC1)c1cnccn1
*A* 6.30

*Q* Query the reported pIC50 for β2i subunit of human iCP (Homo sapiens, UniProt P40306+P49720); item: COc1ccc([C@H](NC(=O)[C@H](Cc2ccccc2)NC(=O)c2cnccn2)B(O)O)cc1
*A* 4.98

*Q* Query the reported pIC50 for β2i subunit of human iCP (Homo sapiens, UniProt P40306+P49720); item: O=C(N[C@@H](Cc1ccccc1)C(=O)N[C@H](B(O)O)c1ccc(-c2ccccc2)cc1)c1cnccn1
*A* 6.59

*Q* Query the reported pIC50 for β2i subunit of human iCP (Homo sapiens, UniProt P40306+P49720); item: O=C(N[C@@H](Cc1ccccc1)C(=O)N[C@H](B(O)O)c1ccc(Cl)cc1)c1cnccn1
*A* 4.13

* * *

Assign IC50 to each entry below.
Molecular target: β1i subunit of human iCP (Homo sapiens, UniProt P28065+P40306)
Experiment: IC50 determination with subunit-specific fluorogenic substrate Ac-PAL-AMC
Settings: IC50 β1i, human iCP; mean of at least three experiments; NA: not active at 50 μM
Please respond with the number in nM and leave the unit unwritten.

*Q* # get_value(readout='IC50', item= O=C(N[C@@H](Cc1ccccc1)C(=O)N[C@@H](Cc1ccccc1)B(O)O)c1cnccn1 )
*A* 54

*Q* # get_value(readout='IC50', item= CC[C@H](NC(=O)[C@H](Cc1ccccc1)NC(=O)c1cnccn1)B(O)O )
*A* 2

*Q* # get_value(readout='IC50', item= O=C(N[C@@H](Cc1ccccc1)C(=O)N[C@H](B(O)O)C1CCCC1)c1cnccn1 )
*A* 3

*Q* # get_value(readout='IC50', item= CCOC(=O)c1cccc([C@H](NC(=O)[C@H](Cc2ccccc2)NC(=O)c2cnccn2)B(O)O)c1 )
*A* 22400

* * *

Molecular target: β5i subunit of human iCP (Homo sapiens, UniProt P20618+P28062)
Test: IC50 determination with fluorogenic substrate Ac-ANW-AMC
Conditions: IC50 β5i, own assay
property_label: pIC50
Just the number, please; pIC50 means minus log10 of the concentration in mol/L.

*Q* # get_value(readout='pIC50', item= COc1ccc([C@@H](O)[C@H](NC(=O)[C@H](C)NC(=O)CN2CCOCC2)C(=O)N[C@@H](CC2=CCCC2)C(=O)[C@@]2(C)CO2)cc1 [KZR-616, reference compound] )
*A* 7.59

*Q* # get_value(readout='pIC50', item= O=C(N[C@@H](Cc1coc2ccccc12)B(O)O)[C@@H]1C[C@H]2CC[C@@H]1O2 )
*A* 8.13
